- test description: Aqueous equilibrium solubility and pH at saturation
- Type: physicochemical
- test context: water, 24 hours at 22° C., HPLC, free base equivalent
property: Solubility (mg FB/mL)
Answers are plain numbers, in mg FB/mL.

Look over these answered cases.
compound	property	val
CN1CCN(c2ccc3nc(-c4c(N)c5c(F)cccc5[nH]c4=O)[nH]c3c2)CC1 [Hemi-malate]	Solubility	6.39
CN1CCN(c2ccc3nc(-c4c(N)c5c(F)cccc5[nH]c4=O)[nH]c3c2)CC1 [Mono-citrate]	Solubility	0.456
CN1CCN(c2ccc3nc(-c4c(N)c5c(F)cccc5[nH]c4=O)[nH]c3c2)CC1 [Bis-Glycinate]	Solubility	0.11

Attention now turns to another entry.
*Q* # query: Solubility of entry CN1CCN(c2ccc3nc(-c4c(N)c5c(F)cccc5[nH]c4=O)[nH]c3c2)CC1 [Mono-acetate]
*A* 84.4

---

Answer each item with its documented Solubility.
- test description: Aqueous equilibrium solubility and pH at saturation
- Assay type: physicochemical
- test context: water, 24 hours at 22° C., HPLC, free base equivalent
Structures can show the parent of a compound that is named as a salt.
Answers are plain numbers, in mg FB/mL.

Look over these answered cases.
compound	property	val
CN1CCN(c2ccc3nc(-c4c(N)c5c(F)cccc5[nH]c4=O)[nH]c3c2)CC1 [Maleate]	Solubility	0.866
CN1CCN(c2ccc3nc(-c4c(N)c5c(F)cccc5[nH]c4=O)[nH]c3c2)CC1 [Nitrate]	Solubility	6.7
CN1CCN(c2ccc3nc(-c4c(N)c5c(F)cccc5[nH]c4=O)[nH]c3c2)CC1 [Phosphate]	Solubility	13.8
CN1CCN(c2ccc3nc(-c4c(N)c5c(F)cccc5[nH]c4=O)[nH]c3c2)CC1 [Bis-Lactate]	Solubility	304
CN1CCN(c2ccc3nc(-c4c(N)c5c(F)cccc5[nH]c4=O)[nH]c3c2)CC1 [Example 60]	Solubility	0.011
CN1CCN(c2ccc3nc(-c4c(N)c5c(F)cccc5[nH]c4=O)[nH]c3c2)CC1 [Glycinate]	Solubility	0.0638

Need Solubility for each of these compounds.
1. CN1CCN(c2ccc3nc(-c4c(N)c5c(F)cccc5[nH]c4=O)[nH]c3c2)CC1 [Hydrochloride]
2. CN1CCN(c2ccc3nc(-c4c(N)c5c(F)cccc5[nH]c4=O)[nH]c3c2)CC1 [Sulfate]
3. CN1CCN(c2ccc3nc(-c4c(N)c5c(F)cccc5[nH]c4=O)[nH]c3c2)CC1 [BisHCl]
4. CN1CCN(c2ccc3nc(-c4c(N)c5c(F)cccc5[nH]c4=O)[nH]c3c2)CC1 [Bis-Acetate]

*A*
1. 26.3
2. 19.7
3. 42
4. 31.9

---

- test description: Chemical stability, solid state (HPLC)
- test context: solid state, 30° C./60% Relative humidity
property: Area % at Time = 6 weeks (Area %)
Answers are plain numbers, in Area %.

compound	Area % at Time = 6 weeks / Area %
CN1CCN(c2ccc3nc(-c4c(N)c5c(F)cccc5[nH]c4=O)[nH]c3c2)CC1 [Phosphate]	99.28
CN1CCN(c2ccc3nc(-c4c(N)c5c(F)cccc5[nH]c4=O)[nH]c3c2)CC1 [Mono-mesylate]	98.68
CN1CCN(c2ccc3nc(-c4c(N)c5c(F)cccc5[nH]c4=O)[nH]c3c2)CC1 [Bis-Lactate]	98.64
CN1CCN(c2ccc3nc(-c4c(N)c5c(F)cccc5[nH]c4=O)[nH]c3c2)CC1 (racemic) [Mono-lactate]	99.04

Attention now turns to another entry.
*Q* # query: Area % at Time = 6 weeks of entry CN1CCN(c2ccc3nc(-c4c(N)c5c(F)cccc5[nH]c4=O)[nH]c3c2)CC1 [Bis-mesylate]
*A* 98.12
